Tested on: p53-regulated transcription in Arn8 cells
Experiment: p53-dependent transcriptional activity, β-galactosidase reporter
Format: cell-based
Conditions: 24 h incubation
Record form. Attribute: Concentration of maximum activation. Fill in for each entry.
Use nM as the unit, but write only the number.

Documented Concentration of maximum activation of NC1CCC(Nc2nc(NCc3ccc(-c4cccs4)nc3)c3ncn(C4CCCC4)c3n2)CC1 (stereo not shown) [BP30] : 120

Documented Concentration of maximum activation of NC1CCC(Nc2nc(NCc3ccc(-c4ccccc4O)cc3)c3ncn(C4CCCC4)c3n2)CC1 (stereo not shown) [BP17] : 950

Documented Concentration of maximum activation of CC(C)(O)CNc1nc(NCc2ccc(-c3ccco3)cc2)c2ncn(C3CCCC3)c2n1 [BP115] : 870

Documented Concentration of maximum activation of NC1CCC(Nc2nc(NCc3ccc(-c4ccccc4O)nc3)c3ncn(C4CCCC4)c3n2)CC1 (stereo not shown) [BP20] : 150

Documented Concentration of maximum activation of NC1CCC(Nc2nc(NCc3ccc(-c4cccc(F)c4)cc3)c3ncn(C4CCCC4)c3n2)CC1 (stereo not shown) [BP12] : 986

Documented Concentration of maximum activation of CC(C)(O)CNc1nc(NCc2ccc(-c3ccco3)nc2)c2ncn(C3CCCC3)c2n1 [BP117] : 950

Documented Concentration of maximum activation of NC1CCC(Nc2nc(NCc3ccc(-c4ccoc4)nc3)c3ncn(C4CCCC4)c3n2)CC1 (stereo not shown) [BP36] : 125

Documented Concentration of maximum activation of NC1CCC(Nc2nc(NCc3ccc(-c4ccsc4)nc3)c3ncn(C4CCCC4)c3n2)CC1 (stereo not shown) [BP35] : 230

Documented Concentration of maximum activation of NC1CCC(Nc2nc(NCc3ccc(-c4ccsc4)cc3)c3ncn(C4CCCC4)c3n2)CC1 (stereo not shown) [BP5] : 961

Documented Concentration of maximum activation of NC1CCC(Nc2nc(NCc3ccc(-c4ccco4)cc3)c3ncn(C4CCCC4)c3n2)CC1 (stereo not shown) [BP4] : 700

Documented Concentration of maximum activation of OC1CCC(Nc2nc(NCc3ccc(-c4ccco4)nc3)c3ncn(C4CCCC4)c3n2)CC1 (stereo not shown) [BP21] : 918

Documented Concentration of maximum activation of NC1CCC(Nc2nc(NCc3ccc(-c4cccc(F)c4)nc3)c3ncn(C4CCCC4)c3n2)CC1 (stereo not shown) [BP19] : 167

Documented Concentration of maximum activation of NC1CCC(Nc2nc(NCc3ccc(-n4cccn4)cc3)c3ncn(C4CCCC4)c3n2)CC1 (stereo not shown) [BP24] : 260

Documented Concentration of maximum activation of COc1ccccc1-c1ccc(CNc2nc(NC3CCC(N)CC3)nc3c2ncn3C2CCCC2)cn1 (stereo not shown) [BP18] : 510

Documented Concentration of maximum activation of COc1ccccc1-c1ccc(CNc2nc(NC3CCC(N)CC3)nc3c2ncn3C2CCCC2)cc1 (stereo not shown) [BP16] : 943

Documented Concentration of maximum activation of NC1CCC(Nc2nc(NCc3ccc(-c4cccs4)cc3)c3ncn(C4CCCC4)c3n2)CC1 (stereo not shown) [BP2] : 930

Documented Concentration of maximum activation of Nc1ccccc1-c1ccc(CNc2nc(NC3CCC(N)CC3)nc3c2ncn3C2CCCC2)cn1 (stereo not shown) [BP22] : 373

Documented Concentration of maximum activation of Nc1ccccc1-c1ccc(CNc2nc(NC3CCC(N)CC3)nc3c2ncn3C2CCCC2)cc1 (stereo not shown) [BP32] : 895

Documented Concentration of maximum activation of NC1CCC(Nc2nc(NCc3ccc(-c4ccoc4)cc3)c3ncn(C4CCCC4)c3n2)CC1 (stereo not shown) [BP13] : 970

Documented Concentration of maximum activation of CCC(CO)Nc1nc(NCc2ccc(-c3ccccn3)cc2)c2ncn(C(C)C)c2n1 (stereo not shown) [CR8, reference compound] : 1600

Documented Concentration of maximum activation of NC1CCC(Nc2nc(NCc3ccc(-c4ccco4)nc3)c3ncn(C4CCCC4)c3n2)CC1 (stereo not shown) [BP14] : 137
